Attribute: inhibition at 13 µM
# tested system: S. pneumoniae Topoisomerase IV ATPase (ParE) (Streptococcus pneumoniae serotype 4)
# test description: S. pneumoniae Topoisomerase IV ATPase inhibition
# Format: biochemical
# condition info: values marked * are an average of two or more data points, read-out: % Inh (13 μM) of S. pneumoniae Topoisomerase IV ATPase
Please state the figure in %; there is no need to write the unit.

O=C(O)c1cc(-c2cnc(Nc3ccc(F)c(Cl)c3)nc2-n2ccc(C(F)(F)F)n2)cnc1OCCn1ccnc1 [Example 797]    100
Cc1cnc(CNc2nc(Nc3ccc(F)c(Cl)c3)ncc2-c2cncnc2)cn1 [Example 58]    58
CNc1ncc(-c2cnc(Nc3cc(OC)cc(OC)c3)nc2-n2nc(C(F)(F)F)cc2C)cc1C(=O)O [Example 591]    100

Field inhibition at 13 µM (S. pneumoniae Topoisomerase IV ATPase (ParE) (Streptococcus pneumoniae serotype 4)), entry CN(C)C(=O)N1CCN(c2nc(Nc3ccc(F)c(Cl)c3)ncc2-c2cccc(/C=C/C(=O)O)c2)CC1 [Example 291] : 90.1

* * *

Attribute: inhibition at 13 µM
# tested system: S. pneumoniae Topoisomerase IV ATPase (ParE) (Streptococcus pneumoniae serotype 4)
# test description: S. pneumoniae Topoisomerase IV ATPase inhibition
# Type: biochemical
# condition info: values marked * are an average of two or more data points, read-out: % Inh (13 μM) of S. pneumoniae Topoisomerase IV ATPase
Please state the figure in %; there is no need to write the unit.

Example entries and their recorded answers appear below.
O=C1NC(=O)c2cc(-c3cnc(Nc4ccc(F)c(Cl)c4)nc3-n3ccc(C(F)(F)F)n3)ccc21 [Example 1009]    92
COC(=O)CC(=O)c1cncc(-c2cnc(Nc3ccc(F)c(Cl)c3)nc2N2CCOCC2)c1 [Example 1039]    90
COc1ccc(-c2cnc(Nc3ccc(F)c(Cl)c3)nc2NCCCN(C)C)cc1C(F)(F)F [Example 7]    98.7
Cc1cc(C(F)F)nn1-c1nc(Nc2ccc(F)c(Cl)c2)ncc1-c1cccc(/C=C/C(=O)O)c1 [Example 563]    100
Fc1ccc(Nc2ncc(-c3cncnc3)c(NCCN3CCOCC3)n2)cc1Cl [Example 43]    74.3
Cc1cc(C(F)(F)F)nn1-c1nc(Nc2ccc3c(c2)OCO3)ncc1-c1cncc(C(=O)O)c1 [Example 671]    92

Now for another entry.
Field inhibition at 13 µM (S. pneumoniae Topoisomerase IV ATPase (ParE) (Streptococcus pneumoniae serotype 4)), entry COCCN1CCN(c2nc(Nc3ccc(F)c(Cl)c3)ncc2-c2cccc(/C=C/C(=O)O)c2)CC1 [Example 300] : 82.3

* * *

Attribute: inhibition at 13 µM
# tested system: S. pneumoniae Topoisomerase IV ATPase (ParE) (Streptococcus pneumoniae serotype 4, UniProt Q59961)
# Sequence (Q59961 whole entry): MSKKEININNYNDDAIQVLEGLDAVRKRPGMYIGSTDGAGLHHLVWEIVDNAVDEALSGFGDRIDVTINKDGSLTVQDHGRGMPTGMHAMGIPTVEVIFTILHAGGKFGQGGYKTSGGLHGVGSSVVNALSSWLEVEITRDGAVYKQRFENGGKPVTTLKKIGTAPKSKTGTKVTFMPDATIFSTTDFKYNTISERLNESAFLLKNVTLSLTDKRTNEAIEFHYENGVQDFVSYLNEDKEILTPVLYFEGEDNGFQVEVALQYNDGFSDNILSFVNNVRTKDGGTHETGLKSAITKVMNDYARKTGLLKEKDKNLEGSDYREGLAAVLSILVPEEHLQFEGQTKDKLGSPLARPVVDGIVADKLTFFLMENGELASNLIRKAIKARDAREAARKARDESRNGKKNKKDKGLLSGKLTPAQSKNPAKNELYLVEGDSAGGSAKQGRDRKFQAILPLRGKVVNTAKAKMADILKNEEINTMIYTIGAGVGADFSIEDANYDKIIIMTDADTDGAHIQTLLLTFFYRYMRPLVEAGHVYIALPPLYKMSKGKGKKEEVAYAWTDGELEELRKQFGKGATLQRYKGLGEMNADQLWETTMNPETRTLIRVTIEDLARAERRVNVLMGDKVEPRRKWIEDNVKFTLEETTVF
# test description: S. pneumoniae Topoisomerase IV ATPase inhibition
# Type: biochemical
# condition info: values marked * are an average of two or more data points, read-out: % Inh (13 μM) of S. pneumoniae Topoisomerase IV ATPase
Please state the figure in %; there is no need to write the unit.

Example entries and their recorded answers appear below.
Fc1ccc(Nc2ncc(-c3cncnc3)c(-n3cccc3)n2)cc1Cl    89.6
COc1cc(F)cc(Nc2ncc(-c3cncc(C(=O)O)c3)c(-n3ccc(C(F)(F)F)n3)n2)c1    100
Fc1ccc(Nc2ncc(-c3cncnc3)c(NCc3ccncc3)n2)cc1Cl    72.4

Reported inhibition at 13 µM for "CC(=O)c1ccc(-c2cnc(Nc3ccc(F)c(Cl)c3)nc2NCCCN(C)C)s1" was 108

Reported inhibition at 13 µM for "CCOC(=O)c1cncc(-c2cnc(Nc3ccc(F)c(Cl)c3)nc2NCCCNC(=O)c2cnc(C)cn2)c1" was 63.3

Reported inhibition at 13 µM for O=C(O)c1cncc(-c2cnc(Nc3ccc(F)c(Cl)c3)nc2N2CCOC(CO)C2)c1 (centres unmarked) was 87

Reported inhibition at 13 µM for "COCCNC(=O)c1cncc(-c2cnc(Nc3ccc(F)c(Cl)c3)nc2-n2nc(C(F)(F)F)cc2C)c1" was 100

Reported inhibition at 13 µM for CCOC(=O)c1cncc(-c2cnc(Nc3ccc(F)c(Cl)c3)nc2N2CCOC(CO)C2)c1 (centres unmarked) was 82

* * *

# tested system: S. pneumoniae Topoisomerase IV ATPase (ParE) (Streptococcus pneumoniae serotype 4, UniProt Q59961)
# test description: S. pneumoniae Topoisomerase IV ATPase inhibition
# Format: biochemical
# condition info: values marked * are an average of two or more data points, read-out: % Inh (13 μM) of S. pneumoniae Topoisomerase IV ATPase
measure: inhibition at 13 µM (%)
Please state the figure in %; there is no need to write the unit.

O=C(O)/C=C/c1cccc(-c2cnc(Nc3cccc4cc[nH]c34)nc2N2CCOCC2)c1    100
Cc1ncsc1CCNc1nc(Nc2ccc(F)c(Cl)c2)ncc1-c1cccc(/C=C/C(=O)O)c1    78

Reported inhibition at 13 µM for "Cc1cc(C(F)(F)F)nn1-c1nc(Nc2cc(F)cc(F)c2)ncc1-c1cncc(C(=O)O)c1" was 100

Reported inhibition at 13 µM for "CCOC(=O)c1cncc(-c2cnc(Nc3ccc(F)c(Cl)c3)nc2NCCCOC)c1" was 88.6

Reported inhibition at 13 µM for "Cn1cc(-c2cnc(Nc3ccc(F)c(Cl)c3)nc2-n2ccc(C(F)(F)F)n2)cc(C(=O)O)c1=O" was 100

Reported inhibition at 13 µM for "Cc1cc(C(F)(F)F)nn1-c1nc(Nc2cc(F)cc(C#N)c2)ncc1-c1cncc(C(=O)O)c1" was 99

Reported inhibition at 13 µM for "Cc1cc(C(F)(F)F)nn1-c1nc(Nc2ccc(F)c(Cl)c2)ncc1-c1cncc(S(C)(=O)=O)c1" was 100

Reported inhibition at 13 µM for "COCCNc1nc(Nc2ccc(F)c(Cl)c2)ncc1-c1cncc(C(=O)O)c1" was 73.2

* * *

# tested system: UniProt Q59961
# test description: S. pneumoniae Topoisomerase IV ATPase inhibition
# Assay type: biochemical
# condition info: values marked * are an average of two or more data points, read-out: % Inh (13 μM) of S. pneumoniae Topoisomerase IV ATPase
Attribute: inhibition at 13 µM
State the result as a value with its unit after it.

Example entries and their recorded answers appear below.
CCn1cc(-c2cnc(Nc3cc(C)cc(OC)c3)nc2-n2ccc(C(F)(F)F)n2)cc(C(=O)NS(C)(=O)=O)c1=O [Example 1175]    99%
COCCCNc1nc(Nc2ccc(F)c(Cl)c2)ncc1-c1ccc(C(C)=O)s1 [Example 179]    93.9%
O=C(O)c1cc(-c2cnc(Nc3ccc(F)c(Cl)c3)nc2-n2ccc(C(F)(F)F)n2)cnc1NCCN1CCOCC1 [Example 1077]    99%

Now for another entry.
Reported inhibition at 13 µM for Cc1cc(Nc2ncc(-c3cncc(C(=O)O)c3)c(N3CCOCC3)n2)ccc1F [Example 438] was 81%

* * *

Attribute: inhibition at 13 µM
# tested system: UniProt:Q59961
# test description: S. pneumoniae Topoisomerase IV ATPase inhibition
# Type: biochemical
# condition info: values marked * are an average of two or more data points, read-out: % Inh (13 μM) of S. pneumoniae Topoisomerase IV ATPase
Please state the figure in %; there is no need to write the unit.

Example entries and their recorded answers appear below.
OC1CCN(c2nc(Nc3ccc(F)c(Cl)c3)ncc2-c2cncnc2)CC1    72.3
Cc1cc(C(F)(F)F)nn1-c1nc(Nc2ccc(F)c(Cl)c2)ncc1-c1cc(C(=O)NS(C)(=O)=O)c(=O)n(C)c1    99
COc1cc(Nc2ncc(-c3cccc(/C=C/C(=O)O)c3)c(NCCc3ccncc3)n2)cc(OC)c1    83.9

Now for another entry.
Reported inhibition at 13 µM for "CN(C)CCCNc1nc(Nc2ccc(F)c(Cl)c2)ncc1-c1cncc(C#N)c1" was 100

* * *

# tested system: S. pneumoniae Topoisomerase IV ATPase (ParE) (Streptococcus pneumoniae serotype 4)
# test description: S. pneumoniae Topoisomerase IV ATPase inhibition
# Type: biochemical
# condition info: values marked * are an average of two or more data points, read-out: % Inh (13 μM) of S. pneumoniae Topoisomerase IV ATPase
Use Condition met when the recorded inhibition at 13 µM is no lower than 80%; use Condition not met when it is lower.

Field: example entries. Status: answers known.
CNC(=O)c1cc(-c2cnc(Nc3ccc(F)c(Cl)c3)nc2-n2ccc(C(F)(F)F)n2)cnc1OC    Condition not met
COCCONC(=O)c1cc(-c2cnc(Nc3cc(OC)cc(OC)c3)nc2-n2ccc(C(F)(F)F)n2)cnc1OC    Condition met
COc1cc(Nc2ncc(-c3cccc(/C=C/C(=O)O)c3)c(-n3nc(C(F)(F)F)cc3C)n2)cc(C(F)(F)F)c1    Condition met
COc1cc(Nc2ncc(-c3cnc(OC)c(C(=O)NS(C)(=O)=O)c3)c(-n3nc(C(F)(F)F)cc3C)n2)cc(OC)c1    Condition met
CC1(C)[C@@H](C(=O)O)[C@@H]1c1cccc(-c2cnc(Nc3ccc(F)c(Cl)c3)nc2-n2ccc(C(F)(F)F)n2)c1    Condition met

Now, please, on to the next molecule.
Exam item: Can "CCOC(=O)c1cncc(-c2cnc(Nc3ccc(F)c(Cl)c3)nc2N2CCCCCC2)c1" be said to have inhibition at 13 µM at or above 80%?
Marked response: Condition not met
